# experimental.target: human serum albumin (HSA) (human), P02768
# measurement.notes: competition SPA on biotinylated HSA, 125I acylated GLP-1 tracer
# protocol.conditions: remark: other sources report otherwise
reported.metric: EC50

Please look up its EC50: HAEGTFTSDVSSYLEGQAAKEFIAWLVRGRG (here or on the partner: Aib8; Lys26 N-epsilon carries the acyl side chain printed in the name; biotinylated) 300 to 800 nM
